# System: P388 leukemia ip, CD2F1 mice, survival T/C
# Assay comment: NCI In Vivo Anticancer Drug Screen. Data for tumor model P388 Leukemia (intraperitoneal) in CD2F1 (CDF1) mice
# Condition details: endpoint: median survival time; dose: 200.0 mg/kg/injection; schedule: Q04DX003 (ip); vehicle: saline with Tween-80; higher = longer survival
Inconclusive results and toxic doses are left out.
Property label: T/C

Form field: reported T/C of `COc1ccc(C=NCCN=Cc2ccc(OC)cc2)cc1`
110 % of control

Form field: reported T/C of `CC(C)CNC1=CC(=O)c2ccccc2C1=O`
92 % of control

Form field: reported T/C of O=C1CN(C2CC2N2CC(=O)NC(=O)C2)CC(=O)N1 (stereo not drawn)
100 % of control

Form field: reported T/C of `CCOP(=O)(O)CP(=O)(O)OCC.CCOP(=O)(O)CP(=O)(O)OCC.[Cr]`
99 % of control

###

# System: P388 leukemia ip, CD2F1 mice, survival T/C
# Assay comment: NCI In Vivo Anticancer Drug Screen. Data for tumor model P388 Leukemia (intraperitoneal) in CD2F1 (CDF1) mice
# Condition details: endpoint: median survival time; dose: 25.0 mg/kg/injection; schedule: Q01DX009 (ip); vehicle: saline with Tween-80; higher = longer survival
Inconclusive results and toxic doses are left out.
Property label: T/C

Molecule: O=C(O)CCCc1cc(I)c(N(CCCl)CCCl)c(I)c1
Property label: T/C
Value measured: 107 % of control

Form field: reported T/C of `O=NN1CCN(N=O)CC1`
113 % of control

Form field: reported T/C of `O=C1CN=C(c2ccc[nH]2)c2cc(Cl)ccc2N1`
109 % of control

Form field: reported T/C of COC(=O)c1cc2cc3c(c(O)c2c(=O)o1)OC1(Cc2c(O)c4c(c(O)c2O1)C(=O)C(OC)CC4=O)CC3O (configuration not stated)
100 % of control

Form field: reported T/C of `N#Cc1c2c(c(O)[nH]c1=O)C(=O)c1ccccc1-2`
104 % of control

Form field: reported T/C of CCOC(=O)C(C(=O)c1ccccc1)c1cc(NS(=O)(=O)c2ccccc2)ccc1O (configuration not stated)
100 % of control

Form field: reported T/C of `C1CCNCC1.O=C([CH-]C(=O)C(F)(F)F)c1cccs1.O=C([CH-]C(=O)C(F)(F)F)c1cccs1.O=C([CH-]C(=O)C(F)(F)F)c1cccs1.O=C([CH-]C(=O)C(F)(F)F)c1cccs1.[Eu+3]`
95 % of control

Form field: reported T/C of `Cc1cc2sccc2cn1`
100 % of control

###

T/C reference
# Tested on: P388 leukemia ip, CD2F1 mice, survival T/C
# Assay comment: NCI In Vivo Anticancer Drug Screen. Data for tumor model P388 Leukemia (intraperitoneal) in CD2F1 (CDF1) mice
# Condition details: endpoint: median survival time; dose: 120.0 mg/kg/injection; schedule: Q01DX005 (ip); vehicle: saline with Tween-80; higher = longer survival
Inconclusive results and toxic doses are left out.

Study these solved cases before continuing.
Compound: COC(=O)C1(CC(=O)CC(=O)CC2(C(=O)OC)NC(=S)NC(=O)C2C#N)NC(=S)NC(=O)C1C#N (centres undefined)
Target of assay: P388 leukemia ip, CD2F1 mice, survival T/C
Value measured: 100 % of control

Compound: CC(C)(C)C(=O)Oc1c2ccccc2cc2ccccc12
Target of assay: P388 leukemia ip, CD2F1 mice, survival T/C
Value measured: 86 % of control

Form field: reported T/C of N#CCc1ccccc1C(C#N)C(=O)CCC(=O)C(C#N)c1ccccc1CC#N (centres undefined)
103 % of control

Form field: reported T/C of `C[N+](C)(C)CC(=O)NNC(=O)CCn1[nH]c(=O)c(Cl)c(Cl)c1=O`
99 % of control

Form field: reported T/C of `COC(=O)CSc1nnc(CSc2ccc(Cl)cc2)n1-c1ccccc1`
92 % of control

Form field: reported T/C of `O=C(c1ccc([N+](=O)[O-])cc1)N1CCCSC1=S`
98 % of control

Form field: reported T/C of `Cc1ccc(-c2c([N+](=O)[O-])c3ccccn3c2[N+](=O)[O-])cc1`
90 % of control

Form field: reported T/C of `CC(=O)[C-](Cl)C(C)=O.CC(=O)[C-](Cl)C(C)=O.CC(=O)[C-](Cl)C(C)=O.[Ru+3]`
109 % of control

Form field: reported T/C of CC1C(c2ccccc2)=NN(C)c2ccccc21 (centres undefined)
102 % of control

Form field: reported T/C of `CN=c1nc2n3c(cccc3n1)NC(C)=N2`
92 % of control

Form field: reported T/C of CCCOc1cc2c(cc1C(C)c1ccc(OCC)c(C)c1)OCO2 (centres undefined)
106 % of control

Form field: reported T/C of `O=C(O)c1cc2c([nH]1)-c1cccnc1C(=O)C2=O`
105 % of control

Form field: reported T/C of O=C1CCC(c2n[nH]c(=S)n2-c2ccccc2)N1 (centres undefined)
97 % of control

Form field: reported T/C of O=C1CCC(Cc2ccccc2Br)C(=O)N1 (centres undefined)
107 % of control

###

# System: P388 leukemia ip, CD2F1 mice, survival T/C
# Assay comment: NCI In Vivo Anticancer Drug Screen. Data for tumor model P388 Leukemia (intraperitoneal) in CD2F1 (CDF1) mice
# Condition details: endpoint: median survival time; dose: 120.0 mg/kg/injection; schedule: Q01DX005 (ip); vehicle: Klucel (hydroxypropylcellulose) (HPC); higher = longer survival
Toxic doses and inconclusive results are not listed.
T/C reference

Form field: reported T/C of CCOC(=O)C1NC(=O)C(C)NC1=O (stereo not drawn)
107 % of control

Form field: reported T/C of CC(=O)Oc1cccc2c1C(=O)C1CC=CC(OC(C)=O)C1C2=O (stereo not drawn)
100 % of control

Form field: reported T/C of O=C(NCCCCCCNC(=O)C1CCCN1C(=O)OCc1ccccc1)C1CCCN1C(=O)OCc1ccccc1 (stereo not drawn)
98 % of control

###

# Tested on: P388 leukemia ip, CD2F1 mice, survival T/C
# Assay comment: NCI In Vivo Anticancer Drug Screen. Data for tumor model P388 Leukemia (intraperitoneal) in CD2F1 (CDF1) mice
# Condition details: endpoint: median survival time; dose: 12.5 mg/kg/injection; schedule: Q01DX009 (ip); vehicle: other; higher = longer survival
Toxic doses and inconclusive results are not listed. Peptide text beside a SMILES is read from it. * marks the point of attachment. Boc = CC(C)(C)OC(=O)*; NHNH2 = NN*
T/C reference

Study these solved cases before continuing.
Compound: CC(C)C(NC(=O)C(Cc1c[nH]c2ccccc12)NC(=O)OC(C)(C)C)C(=O)NN (stereo not drawn) (Boc-Trp-Val-NHNH2; configuration not given here)
Target of assay: P388 leukemia ip, CD2F1 mice, survival T/C
Property label: T/C
Value measured: 98 % of control
--
Compound: CC(C)(C)OC(=O)NN(CC(=O)OCc1ccccc1)N=O
Target of assay: P388 leukemia ip, CD2F1 mice, survival T/C
Property label: T/C
Value measured: 104 % of control
--
Compound: COc1cccc2c1C(=O)c1c(O)c3c(c(O)c1C2=O)CC(NO)CC3OC1CC(NC(=O)C(F)(F)F)C(O)C(C)O1 (stereo not given)
Target of assay: P388 leukemia ip, CD2F1 mice, survival T/C
Property label: T/C
Value measured: 113 % of control
--
Compound: O=[N+]([O-])c1ccc2[nH]c3cnccc3c2c1
Target of assay: P388 leukemia ip, CD2F1 mice, survival T/C
Property label: T/C
Value measured: 106 % of control

API: the following record is the query input.
Form field: reported T/C of `O=C(O)c1n[nH]c2ccccc2c1=O`
109 % of control

###

# Tested on: P388 leukemia ip, CD2F1 mice, survival T/C
# Assay comment: NCI In Vivo Anticancer Drug Screen. Data for tumor model P388 Leukemia (intraperitoneal) in CD2F1 (CDF1) mice
# Condition details: endpoint: median survival time; dose: 100.0 mg/kg/injection; schedule: Q01DX005 (ip); vehicle: saline with Tween-80; higher = longer survival
Toxic doses and inconclusive results are not listed.
T/C reference

Study these solved cases before continuing.
Compound: O=C(NN1CCCCC1)NN1CCCCC1
Target of assay: P388 leukemia ip, CD2F1 mice, survival T/C
T/C: 100 % of control

Compound: CC(C(O)c1ccc2cc(Br)c3ccccc3c2c1)N(C)C (stereo not given)
Target of assay: P388 leukemia ip, CD2F1 mice, survival T/C
T/C: 91 % of control

Compound: O=C1CCCc2[nH]c3ccc(F)cc3c21
Target of assay: P388 leukemia ip, CD2F1 mice, survival T/C
T/C: 90 % of control

Compound: CNC(=S)N/N=C1/CCOC(C)/C1=N\NC(=S)NC (stereo not given)
Target of assay: P388 leukemia ip, CD2F1 mice, survival T/C
T/C: 95 % of control

Compound: O=C1c2cc3c(cc2C(=O)c2[nH]c(=O)ccc21)CCCC3
Target of assay: P388 leukemia ip, CD2F1 mice, survival T/C
T/C: 88 % of control

Form field: reported T/C of `C[n+]1c(-c2ccc(/C=N/NC(=O)c3ccc(C(=O)N/N=C/c4ccc(-c5cn6ccccc6[n+]5C)cc4)c(O)c3O)cc2)cn2ccccc21`
96 % of control

Form field: reported T/C of O=C(Nc1cccc([N+](=O)[O-])c1)C1C(=O)N(c2cccc([N+](=O)[O-])c2)C(=O)/C1=N/O (stereo not given)
95 % of control

Form field: reported T/C of CC(C)(C)OC(=O)NC(COCc1ccccc1)C(=O)ON1C(=O)CCC1=O (stereo not given)
103 % of control

Form field: reported T/C of `O[C@H]1CCC[C@H]1NCc1ccnc2cc(Cl)ccc12`
89 % of control

Form field: reported T/C of COc1cc(/C=N/NC(=O)C(N)Cc2ccc(O)cc2)ccc1O (stereo not given)
94 % of control
